Entries and their melting point values follow.

molecule: Cc1ccc(-n2nc3c4cc(Cc5ccccc5)ccc4[nH]c(=O)n3c2=O)cc1 [Compound 16a]
melting point [°C]: 299
//
molecule: Cc1ccc(-n2nc3c4cc(Cc5ccsc5)ccc4[nH]c(=O)n3c2=O)cc1 [Compound 16c]
melting point [°C]: 287
//
molecule: Cc1ccc(-n2nc3c4cc(CCc5ccsc5)ccc4[nH]c(=O)n3c2=O)cc1 [Compound 14b]
melting point [°C]: 281
//
molecule: Cc1ccc(-n2nc3c4cc(CCc5ccc(-c6ccccc6)cc5)ccc4[nH]c(=O)n3c2=O)cc1 [Compound 14g]
melting point [°C]: 345

====

- systemName: benzodiazepine receptor
- assayMethodText: Displacement of 3H-flumazenil in rat cortical tissue (receptor binding)
- conditionDetails: 3H-Flumazenil binding in vitro, rat cortical membranes; mean ± SD of three determinations

compound: O=c1[nH]c2ccc(Br)cc2c2nn(-c3ccc(Cl)cc3)c(=O)n12
systemName: benzodiazepine receptor
unitsOfMeasure: nM
Ki: 0.6
--
compound: Cc1ccc(-n2nc3c4cc(CCc5ccsc5)ccc4[nH]c(=O)n3c2=O)cc1 [Compound 14b]
systemName: benzodiazepine receptor
unitsOfMeasure: nM
Ki: 0.94
--
compound: Cc1ccc2[nH]c(=O)n3c(=O)n(-c4ccccc4)nc3c2c1
systemName: benzodiazepine receptor
unitsOfMeasure: nM
Ki: 0.62
--
compound: Cc1ccc(-n2nc3c4cc(CCc5ccc(Oc6ccccc6)cc5)ccc4[nH]c(=O)n3c2=O)cc1 [Compound 14f]
systemName: benzodiazepine receptor
unitsOfMeasure: nM
Ki: 123

====

Entries and their melting point values follow.
attributeMeasured: melting point (°C)

molecule: Cc1ccc(-n2nc3c4cc(CCc5ccc(Oc6ccccc6)cc5)ccc4[nH]c(=O)n3c2=O)cc1 [Compound 14f]
attributeMeasured: melting point
unitsOfMeasure: °C
recordedMeasurement: 213
//
molecule: Cc1ccc(-n2nc3c4cc(C#Cc5cccnc5)ccc4[nH]c(=O)n3c2=O)cc1 [Compound 13d]
attributeMeasured: melting point
unitsOfMeasure: °C
recordedMeasurement: 339
//
molecule: Cc1ccc(-n2nc3c4cc(CCc5ccncc5)ccc4[nH]c(=O)n3c2=O)cc1 [Compound 14e]
attributeMeasured: melting point
unitsOfMeasure: °C
recordedMeasurement: 294
//
molecule: Cc1ccc(-n2nc3c4cc(/C=C/C(=O)OCc5ccccc5)ccc4[nH]c(=O)n3c2=O)cc1
attributeMeasured: melting point
unitsOfMeasure: °C
recordedMeasurement: 242
//
molecule: Cc1ccc(-n2nc3c4cc(C#Cc5ccccn5)ccc4[nH]c(=O)n3c2=O)cc1 [Compound 13c]
attributeMeasured: melting point
unitsOfMeasure: °C
recordedMeasurement: 330
//
molecule: CCOC(=O)n1c(=S)[nH]c2ccc(C)cc2c1=O
attributeMeasured: melting point
unitsOfMeasure: °C
recordedMeasurement: 164

====

Entries and their pKi values follow.
- systemName: benzodiazepine receptor
- assayMethodText: Displacement of 3H-flumazenil in rat cortical tissue (receptor binding)
- conditionDetails: 3H-Flumazenil binding in vitro, rat cortical membranes; mean ± SD of three determinations
- Description: Affinity of test substances for the benzodiazepine receptor was determined in vitro by displacement of ^3H-flumazenil in rat cortical tissue.
pKi: −log10 of the molar value.
attributeMeasured: pKi

compound: Cc1ccc(-n2nc3c4cc(Cc5cccc(F)c5)ccc4[nH]c(=O)n3c2=O)cc1 [Compound 16b]
attributeMeasured: pKi
valueComparator: =
recordedMeasurement: 8.68

compound: Cc1ccc(-n2nc3c4cc(CCc5ccccn5)ccc4[nH]c(=O)n3c2=O)cc1 [Compound 14c]
attributeMeasured: pKi
valueComparator: =
recordedMeasurement: 9.28

compound: Cc1ccc(-n2nc3c4cc(CCc5ccccc5)ccc4[nH]c(=O)n3c2=O)cc1 [Compound 14a]
attributeMeasured: pKi
valueComparator: =
recordedMeasurement: 8.40

compound: Cc1ccc(-n2nc3c4cc(CCC(=O)O)ccc4[nH]c(=O)n3c2=O)cc1 [Compound 18]
attributeMeasured: pKi
valueComparator: =
recordedMeasurement: 8.85

compound: O=c1[nH]c2ccc(Br)cc2c2nn(-c3ccccc3F)c(=O)n12 [Compound 8d]
attributeMeasured: pKi
valueComparator: =
recordedMeasurement: 9.70

compound: Cc1ccc(-n2nc3c4cc(C#Cc5ccccc5)ccc4[nH]c(=O)n3c2=O)cc1 [Compound 13a]
attributeMeasured: pKi
valueComparator: =
recordedMeasurement: 7.40

compound: Cc1ccc(-n2nc3c4cc(CCc5ccncc5)ccc4[nH]c(=O)n3c2=O)cc1 [Compound 14e]
attributeMeasured: pKi
valueComparator: =
recordedMeasurement: 9.77

compound: CCOC(=O)n1c(=S)[nH]c2ccc(C)cc2c1=O [Compound 3b]
attributeMeasured: pKi
valueComparator: <
recordedMeasurement: 4.52
